Recorded Reporter expression (%) mean, DMSO for the following molecules
tested on: U251 human glioblastoma cell line; experiment: in vitro FM-HCR assay of MGMT activity (mPlum O^6MeG reporter plasmid); assay type: cell-based; details: 0.1% DMSO; U251 cells; flow cytometry 24 h after transfection; damaged/undamaged reporter; inversely related to MGMT activity
Just the number please, in %, no unit attached.

[
  {
    "molecule": "R135T: MGMT polypeptide with mutation R135T (protein) MDKDCEMKRTTLDSPLGKLELSGCEQGLHEIKLLGKGTSAADAVEVPAPAAVLGGPEPLMQCTAWLNAYFHQPEAIEEFPVPALHHPVFQQESFTRQVLWKLLKVVKFGEVISYQQLAALAGNPKAARAVGGAMTGNPVPILIPCHRVVCSSGAVGNYSGGLAVKEWLLAHEGHRLGKPGLGGSSGLAGAWLKGAGATSGSPPAGRN",
    "Reporter expression (%) mean, DMSO": 27.3
  }
]

The recorded Reporter expression (%) mean, DMSO for entry wild-type MGMT: reference MGMT polypeptide according to SEQ ID NO: 1 (GenBank NP_002403.3); used as control (protein, REGION 1..207: note = Wild Type MGMT, used as control) MDKDCEMKRTTLDSPLGKLELSGCEQGLHEIKLLGKGTSAADAVEVPAPAAVLGGPEPLMQCTAWLNAYFHQPEAIEEFPVPALHHPVFQQESFTRQVLWKLLKVVKFGEVISYQQLAALAGNPKAARAVGGAMRGNPVPILIPCHRVVCSSGAVGNYSGGLAVKEWLLAHEGHRLGKPGLGGSSGLAGAWLKGAGATSGSPPAGRN equals 18.5

Data point: M134Y: MGMT polypeptide with mutation M134Y (protein) MDKDCEMKRTTLDSPLGKLELSGCEQGLHEIKLLGKGTSAADAVEVPAPAAVLGGPEPLMQCTAWLNAYFHQPEAIEEFPVPALHHPVFQQESFTRQVLWKLLKVVKFGEVISYQQLAALAGNPKAARAVGGAYRGNPVPILIPCHRVVCSSGAVGNYSGGLAVKEWLLAHEGHRLGKPGLGGSSGLAGAWLKGAGATSGSPPAGRN ; Reporter expression (%) mean, DMSO = 108.0

Lab note: measured Reporter expression (%) mean, DMSO of P140F: MGMT polypeptide with mutation P140F (protein) MDKDCEMKRTTLDSPLGKLELSGCEQGLHEIKLLGKGTSAADAVEVPAPAAVLGGPEPLMQCTAWLNAYFHQPEAIEEFPVPALHHPVFQQESFTRQVLWKLLKVVKFGEVISYQQLAALAGNPKAARAVGGAMRGNPVFILIPCHRVVCSSGAVGNYSGGLAVKEWLLAHEGHRLGKPGLGGSSGLAGAWLKGAGATSGSPPAGRN was 25.3

// sample N137D: MGMT polypeptide with mutation N137D (protein) MDKDCEMKRTTLDSPLGKLELSGCEQGLHEIKLLGKGTSAADAVEVPAPAAVLGGPEPLMQCTAWLNAYFHQPEAIEEFPVPALHHPVFQQESFTRQVLWKLLKVVKFGEVISYQQLAALAGNPKAARAVGGAMRGDPVPILIPCHRVVCSSGAVGNYSGGLAVKEWLLAHEGHRLGKPGLGGSSGLAGAWLKGAGATSGSPPAGRN , its Reporter expression (%) mean, DMSO was 52.3
